- SYSTEM: human 5-HT2AR (Homo sapiens)
- Sequence (P28223 whole entry): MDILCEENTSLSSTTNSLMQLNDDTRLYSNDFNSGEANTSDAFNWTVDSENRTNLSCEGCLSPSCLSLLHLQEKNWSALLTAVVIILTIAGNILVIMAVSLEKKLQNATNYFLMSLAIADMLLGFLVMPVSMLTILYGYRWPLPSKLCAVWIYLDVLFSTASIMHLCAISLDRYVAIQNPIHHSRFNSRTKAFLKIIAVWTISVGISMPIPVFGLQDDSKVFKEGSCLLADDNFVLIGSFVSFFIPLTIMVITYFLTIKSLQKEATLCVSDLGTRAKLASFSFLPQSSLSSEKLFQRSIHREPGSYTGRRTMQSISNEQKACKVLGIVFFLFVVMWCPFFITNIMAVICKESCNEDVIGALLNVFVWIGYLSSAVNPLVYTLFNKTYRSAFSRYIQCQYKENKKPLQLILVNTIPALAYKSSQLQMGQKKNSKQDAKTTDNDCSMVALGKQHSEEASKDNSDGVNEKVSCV
ASSAY_READOUT: Ki (µM)
Field: numeric (µM). Do not append units.

What value of measured Ki is listed for COC(=O)c1ccc(C2c3c(-c4ccccc4O)n[nH]c3C(=O)N2Cc2ccncc2)cc1 (stereo not shown) ?
3.75

---

- SYSTEM: human 5-HT6R (Homo sapiens)
- Sequence (P50406 whole entry): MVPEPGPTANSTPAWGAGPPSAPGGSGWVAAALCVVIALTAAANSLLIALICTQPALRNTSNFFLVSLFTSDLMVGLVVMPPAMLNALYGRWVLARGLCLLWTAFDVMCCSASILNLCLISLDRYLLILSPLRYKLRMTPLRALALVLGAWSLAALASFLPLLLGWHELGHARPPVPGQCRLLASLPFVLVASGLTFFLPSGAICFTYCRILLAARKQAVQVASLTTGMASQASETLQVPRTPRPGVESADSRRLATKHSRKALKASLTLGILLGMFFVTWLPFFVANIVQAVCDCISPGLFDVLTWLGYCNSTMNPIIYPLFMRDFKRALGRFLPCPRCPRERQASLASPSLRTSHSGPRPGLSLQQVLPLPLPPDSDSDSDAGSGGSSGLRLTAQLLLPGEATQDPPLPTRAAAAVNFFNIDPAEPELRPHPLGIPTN
ASSAY_READOUT: pKi
// pKi is dimensionless: -log10 of concentration (M)

What value of measured pKi is listed for COC(=O)c1ccc(C2c3c(-c4ccccc4O)n[nH]c3C(=O)N2Cc2ccncc2)cc1 (stereo not shown) [D174-0581] ?
4.87

---

- SYSTEM: human 5-HT7bR (Homo sapiens, UniProt P34969)
- Sequence (P34969 1-432 limits assumed): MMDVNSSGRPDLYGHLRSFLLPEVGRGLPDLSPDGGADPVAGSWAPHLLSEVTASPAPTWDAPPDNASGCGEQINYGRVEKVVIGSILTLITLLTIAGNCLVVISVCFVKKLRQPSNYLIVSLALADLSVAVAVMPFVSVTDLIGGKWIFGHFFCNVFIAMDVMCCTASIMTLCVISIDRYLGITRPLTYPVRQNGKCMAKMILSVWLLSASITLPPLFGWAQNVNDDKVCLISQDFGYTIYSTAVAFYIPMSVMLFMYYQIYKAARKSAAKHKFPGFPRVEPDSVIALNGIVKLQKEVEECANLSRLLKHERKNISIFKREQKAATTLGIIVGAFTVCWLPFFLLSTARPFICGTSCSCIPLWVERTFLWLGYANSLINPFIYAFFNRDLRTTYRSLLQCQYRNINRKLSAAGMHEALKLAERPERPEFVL
ASSAY_READOUT: pKi
// pKi is dimensionless: -log10 of concentration (M)

What value of measured pKi is listed for COC(=O)c1ccc(C2c3c(-c4ccccc4O)n[nH]c3C(=O)N2Cc2ccncc2)cc1 (stereo not shown) ?
5.19
